biological target: KRAS G12D (Homo sapiens (Human), UniProt P01116, G12D); assay: SPR binding affinity and kinetics, GDP-loaded KRAS G12D; details: GDP loaded protein, geomean
Sequence (P01116 other isoform, or with tags, fused parts or gaps G12D): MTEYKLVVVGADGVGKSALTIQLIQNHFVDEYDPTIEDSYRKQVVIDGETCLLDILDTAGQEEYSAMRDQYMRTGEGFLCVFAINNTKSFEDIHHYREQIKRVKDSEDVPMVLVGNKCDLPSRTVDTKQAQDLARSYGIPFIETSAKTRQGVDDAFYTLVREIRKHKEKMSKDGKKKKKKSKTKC
I'd appreciate it if you marked entries Y when Kd is lower than 0.1 nM and N when it is not.

>>> category("Fc1c(-c2c(C3CC3)c(Cl)cc3[nH]ncc23)nc2c3c(nc(OC[C@@]45CCCN4C[C@H](F)C5)nc13)N1CCCOC[C@H]1CO2")
"Y"
>>> category("C=C1CN2CCC[C@@]2(COc2nc3c4c(nc(-c5c(C(F)(F)F)c(Cl)cc6[nH]ncc56)c(F)c4n2)OC[C@@H]2COCCCN32)C1")
"N"

### Prompt I wonder whether `C=C1CN2CCC[C@@]2(COc2nc3c4c(nc(-c5c(Cl)c(Cl)cc6[nH]ncc56)c(F)c4n2)OC[C@@H]2COCCCN32)C1` has Kd below 0.1 nM. Can you tell?
### Response Y

### Prompt I wonder whether `C=C1CN2CCC[C@@]2(COc2nc3c4c(nc(-c5c(C)ccc6[nH]ncc56)c(F)c4n2)OC[C@@H]2COCCCN32)C1` has Kd below 0.1 nM. Can you tell?
### Response N
